Conditions: 303.15 K; 101.33 kPa; Liquid; Vibrating tube method
Numbers after ± are expanded uncertainties.
Consider the following compounds and their measured mass density readings.

> print(dat)
                                   compound  propertyname               result
1            C=COC(=O)CCC [vinyl butanoate]  mass density     888.65 ± 1 kg/m3
2  CCn1cc[n+](C)c1.O=S(=O)([N-]S(=O)(=O)C(F)(F)F)C(F)(F)F  mass density  1513.74 ± 1.2 kg/m3
3  CCCCCC[n+]1ccn(C)c1.O=S(=O)([N-]S(=O)(=O)C(F)(F)F)C(F)(F)F  mass density  1367.17 ± 1.1 kg/m3
4                                 CCCC(=O)O  mass density     948.44 ± 1 kg/m3
5  CCCC(=O)OC(C)CCC (stereo unspecified) [1-methylbutyl butanoate]  mass density     849.19 ± 1 kg/m3

Then this compound:
Param item = CCCC(C)O (stereo unspecified) ; retrieve measured mass density.
800.09 ± 2.1 kg/m3
